Tested on: L1210 leukemia ip in BDF1 mice, survival T/C
assay.protocol: NCI In Vivo Anticancer Drug Screen. Data for tumor model L1210 Leukemia (intraperitoneal) in B6D2F1 (BDF1) mice
details: endpoint: mean survival time; dose: 100.0 mg/kg/injection; schedule: Q04DX003 (ip); vehicle: saline; higher = longer survival
Protocol: The antitumor activity of compounds was measured in mice bearing transplantable tumors. Survival or tumor size were measured and the results are expressed as the measurement made in the treated group (T) divided by the measurement made in the vehicle treated control group (C). The tumor model used in this assay is L1210 Leukemia (intraperitoneal) in B6D2F1 (BDF1) mice
Toxic doses and inconclusive results are not listed.
Item-by-item account of T/C

{"compound": "O=C1C=C(Nc2cccc(O)c2)c2ccccc2C1=O", "T/C": "94 % of control"}
{"compound": "COc1ccc2c(c1)C13CCN(C)C(C2)C1CCC1(C3)OCCO1 (stereo not given)", "T/C": "105 % of control"}
{"compound": "NCCN1CCN=C1C1=NCCN1CCN", "T/C": "100 % of control"}
{"compound": "CC(C)N1CCC(=O)NC1=O", "T/C": "94 % of control"}
{"compound": "CC(=O)OC1C(OC(C)=O)C2C(C)(C)CCCC2(C)C2Cc3occc3C(C)C12 (stereo not given)", "T/C": "120 % of control"}
{"compound": "NC1=NC(=O)CS1", "T/C": "86 % of control"}
{"compound": "CCCc1nc(N)[nH]c(=O)c1CCCCc1ccccc1", "T/C": "96 % of control"}
{"compound": "NC(CSCCc1ccccn1)C(=O)O (stereo not given)", "T/C": "101 % of control"}
{"compound": "O=CN(Cc1cnccn1)Cc1cnccn1", "T/C": "93 % of control"}
{"compound": "CCOC(=O)C1OC1(C)c1ccccc1 (stereo not given)", "T/C": "100 % of control"}
{"compound": "COc1cc2c(cc1OC)C(C)=NCC2", "T/C": "102 % of control"}
{"compound": "O/N=C\\C[n+]1cc2ccccc2cc1/C=N\\O", "T/C": "98 % of control"}
{"compound": "CCOC(CN=CN(C)C)OCC", "T/C": "94 % of control"}
{"compound": "COC(=O)C(C)CN1CCCCCC1 (stereo not given)", "T/C": "100 % of control"}
{"compound": "Cc1ccc2c(c1)CCCN2C", "T/C": "100 % of control"}
{"compound": "COC(=O)/C=C/C(=O)OC", "T/C": "101 % of control"}
{"compound": "CC(C)NCC(O)c1cccc(O)c1 (stereo not given)", "T/C": "101 % of control"}
{"compound": "ClCCCCC(Cl)(Cl)Cl", "T/C": "102 % of control"}
{"compound": "CO/N=C/c1ccc([N+](=O)[O-])s1", "T/C": "106 % of control"}
{"compound": "COc1ccc(Cl)cc1NC(=O)Nc1ccc(CCO)cc1", "T/C": "113 % of control"}
{"compound": "C=CCOc1ccn(C)c(=O)n1", "T/C": "108 % of control"}
{"compound": "CC1CC(C)(C)[N+](C)=C(CC(C)(C)O)O1 (stereo not given)", "T/C": "113 % of control"}
{"compound": "COc1cccc(/C=C(/SC)S(C)=O)c1OC (stereo not given)", "T/C": "105 % of control"}
{"compound": "O=S1(=O)CCCCO1", "T/C": "98 % of control"}
{"compound": "CCN1CCC2CN(C(=N)N)CCN2C1=O (stereo not given)", "T/C": "101 % of control"}
{"compound": "O=P(O)(c1ccccc1)c1ccc(I)cc1", "T/C": "100 % of control"}
{"compound": "COc1ccc(CCN(C)C(C)C2C3CC4CC(C3)CC2C4)cc1OC (stereo not given)", "T/C": "101 % of control"}
{"compound": "CCN(CC)CC(=O)NCC(CCN1CCCCC1)(CCN1CCCCC1)c1cccc2ccccc12", "T/C": "110 % of control"}
{"compound": "CCC[As](=O)(O)C(C)C", "T/C": "97 % of control"}
{"compound": "CCC(CC)(CO)CO", "T/C": "91 % of control"}

----------
System: L1210 leukemia ip in BDF1 mice, survival T/C
assay.protocol: NCI In Vivo Anticancer Drug Screen. Data for tumor model L1210 Leukemia (intraperitoneal) in B6D2F1 (BDF1) mice
details: endpoint: mean survival time; dose: 400.0 mg/kg/injection; schedule: Q04DX003 (ip); vehicle: saline with Tween-80; higher = longer survival
Toxic doses and inconclusive results are not listed.
Item-by-item account of T/C

{"compound": "CC(C)(C)C(=O)CC(=O)C(C)(C)C.CC(C)(C)C(=O)CC(=O)C(C)(C)C.CC(C)(C)C(=O)CC(=O)C(C)(C)C.CC(C)(C)C(=O)CC(=O)C(C)(C)C.[Th]", "T/C": "90 % of control"}
{"compound": "Cc1ccc(C(=O)C(Br)C(Br)c2ccccc2)cc1 (stereo not drawn)", "T/C": "95 % of control"}
{"compound": "N#CC1c2ccccc2C=CN1C(=O)c1ccccc1 (stereo not drawn)", "T/C": "96 % of control"}
{"compound": "O=C(/C=C/c1ccc(Br)cc1)c1ccc(Cl)cc1", "T/C": "92 % of control"}
{"compound": "COC(=O)C(CSCSC)NC(=O)/C=C/c1ccccc1Cl (stereo not drawn)", "T/C": "87 % of control"}
{"compound": "Cc1ccccc1OC(F)(F)C(F)Cl (stereo not drawn)", "T/C": "96 % of control"}
{"compound": "CC(=O)OC1Cc2ccccc21 (stereo not drawn)", "T/C": "98 % of control"}
{"compound": "COC(=O)C(C#N)Cc1ccccc1Cl (stereo not drawn)", "T/C": "98 % of control"}
{"compound": "CNC(=O)Oc1cccc(NC(=O)N(C(C)C)C(C)C)c1", "T/C": "88 % of control"}
{"compound": "O=C1N=C2C=CC=CN2CC1O (stereo not drawn)", "T/C": "89 % of control"}
{"compound": "Cc1cc2c(cc1C)/C(=N\\O)CCCC2", "T/C": "94 % of control"}
{"compound": "COc1ccc(C2C3CC4C(OC(=O)C42)C3I)cc1 (stereo not drawn)", "T/C": "87 % of control"}
{"compound": "Cc1cnc(Cl)c(Br)c1", "T/C": "98 % of control"}

----------
System: L1210 leukemia ip in BDF1 mice, survival T/C
assay.protocol: NCI In Vivo Anticancer Drug Screen. Data for tumor model L1210 Leukemia (intraperitoneal) in B6D2F1 (BDF1) mice
details: endpoint: mean survival time; dose: 400.0 mg/kg/injection; schedule: Q04DX003 (ip); vehicle: other; higher = longer survival
Inconclusive results and toxic doses are left out.
Item-by-item account of T/C

{"compound": "O=C(NC1CCCCC1)O/N=C/c1ccccn1", "target.or.test.system": "L1210 leukemia ip in BDF1 mice, survival T/C", "T/C": "94 % of control"}
{"compound": "CS(=O)CC(=O)c1ccc(C(=O)O)cc1 (stereo not given)", "target.or.test.system": "L1210 leukemia ip in BDF1 mice, survival T/C", "T/C": "101 % of control"}
{"compound": "c1cc2cc3c(cc2cc1CC1=NCCc2cc4c(cc21)OCO4)OCO3", "target.or.test.system": "L1210 leukemia ip in BDF1 mice, survival T/C", "T/C": "105 % of control"}
{"compound": "O=C(c1ccccc1)c1ccc2ccc(F)cc2c1C(=O)O", "target.or.test.system": "L1210 leukemia ip in BDF1 mice, survival T/C", "T/C": "101 % of control"}
{"compound": "CCC1=NS(=O)(=O)c2c(ncn2C)N1", "target.or.test.system": "L1210 leukemia ip in BDF1 mice, survival T/C", "T/C": "103 % of control"}

----------
System: L1210 leukemia ip in BDF1 mice, survival T/C
assay.protocol: NCI In Vivo Anticancer Drug Screen. Data for tumor model L1210 Leukemia (intraperitoneal) in B6D2F1 (BDF1) mice
details: endpoint: mean survival time; dose: 100.0 mg/kg/injection; schedule: Q04DX003 (ip); vehicle: saline; higher = longer survival
Experimental: The antitumor activity of compounds was measured in mice bearing transplantable tumors. Survival or tumor size were measured and the results are expressed as the measurement made in the treated group (T) divided by the measurement made in the vehicle treated control group (C). The tumor model used in this assay is L1210 Leukemia (intraperitoneal) in B6D2F1 (BDF1) mice
Toxic doses and inconclusive results are not listed.
Item-by-item account of T/C

{"smiles.code": "COc1cccc(C=Nc2ccc(Br)cc2)c1O.COc1cccc(C=Nc2ccc(Br)cc2)c1O.[Co]", "T/C": "98 % of control"}
{"smiles.code": "COC(=O)c1cc(C)n(C)c(=O)c1CNC(=O)c1ccccc1", "T/C": "107 % of control"}
{"smiles.code": "Nc1cccnn1", "T/C": "109 % of control"}
{"smiles.code": "CCOC(=O)NC(=O)NC(=O)OCC", "T/C": "107 % of control"}
{"smiles.code": "CCCCCCCCCCCCCCCC[N+]1(C)CCN(SN2CC[N+](C)(CCCCCCCCCCCCCCCC)CC2)CC1", "T/C": "86 % of control"}
{"smiles.code": "Cn1cc(C(N)=O)ccc1=N", "T/C": "113 % of control"}
